These data points were gathered from PubChem BioAssay AID2451.

system: Fructose-bisphosphate aldolase (Giardia intestinalis (strain ATCC 50803 / WB clone C6))
test name: qHTS Assay for Inhibitors of Fructose-1,6-bisphosphate Aldolase from Giardia Lamblia; note: nearly all actives have a fitted effect of over 55% in size
test context: purified Giardia FBPA; series mostly up to 59.6 µM
In all, about 290,000 compounds went through this assay and about 2,100 (0.72%) were called active. About 4% were inconclusive and are not listed. Calls come from the whole dose curve; as a rule, active = well fitted inhibition curve with a large enough effect; inconclusive = small, poorly fitted or top-dose-only effect, or effect the other way; inactive = flat fitted curve, though single readings scatter. The list comes from a sample in which actives are over-represented; it also holds close analogues and randomly drawn compounds.
// classify into YES for active, NO for inactive

Recorded results for 5 compounds are shown here.
{"columns": ["compound", "system", "class assignment"],
 "data": [
  ["Cc1cccc(S(=O)(=O)N2CN(CC3CCCO3)c3nc4ccccc4nc32)c1 (configuration not stated)", "Fructose-bisphosphate aldolase (Giardia intestinalis (strain ATCC 50803 / WB clone C6))", "NO"],
  ["Cn1c(CCCOc2ccc(Cl)cc2Cl)n[nH]c1=S", "Fructose-bisphosphate aldolase (Giardia intestinalis (strain ATCC 50803 / WB clone C6))", "NO"],
  ["CN(C)CCOc1ccc(Cl)cc1C(C)(C)C", "Fructose-bisphosphate aldolase (Giardia intestinalis (strain ATCC 50803 / WB clone C6))", "YES"],
  ["O=c1c(O)c(Br)ccc2c(Br)c(O)c(O)c(O)c12", "Fructose-bisphosphate aldolase (Giardia intestinalis (strain ATCC 50803 / WB clone C6))", "YES"],
  ["O=C(NCCCc1ccccc1)c1cc(COc2c(F)cccc2F)on1", "Fructose-bisphosphate aldolase (Giardia intestinalis (strain ATCC 50803 / WB clone C6))", "NO"]
]}

Ask: Hi, do you know how CCNC(=O)N1CCCC(C(=O)c2ccc(-c3ccccc3)cc2)C1 (configuration not stated) came out in this test?
Result: NO

Ask: Hi, do you know how Cc1cccc(-c2nnc(SCC(=O)O)n2Cc2ccccc2)c1 came out in this test?
Result: YES

Ask: Hi, do you know how O=C(CCN1C(=O)COc2ccccc21)NCCCN1CCN(c2ccc(F)cc2)CC1 came out in this test?
Result: NO
